Reference source for all entries: PubChem BioAssay (NCI)

# Test system: COLO 205 colon
# protocolDetails: NCI tumour cell line growth inhibition, 48 h; in the data active = GI50 below about 0.43 µM; inactive = the rest
Labels: true = active, false = inactive

>  <mol>
C=C(C)[C@@H]1CCC=C2CC[C@]3(C)[C@H](CC[C@@H]4[C@@]5(C)CCCNC(C)(C)[C@@H]5CC[C@]43C)[C@H]21

>  <class>
false

$$$$
>  <mol>
C#C[C@]1(O)CC[C@H]2[C@@H]3CC=C4c5sc(Nc6cc(F)ccc6F)nc5CC[C@]4(C)[C@H]3CC[C@@]21C

>  <class>
false

$$$$
>  <mol>
COc1ccc2c(c1)nc(NNC(=O)c1cnccn1)c1cccn12

>  <class>
true

$$$$
>  <mol>
CCOc1ccc2c(-c3ccnc(Nc4cc(OC)cc(C(F)(F)F)c4)n3)cnn2n1

>  <class>
false

$$$$
>  <mol>
O=C(/C=C(\O)C(=O)O)/C=C(\O)c1ccccc1

>  <class>
false

$$$$
>  <mol>
O=C1CCc2c(sc3[nH]c(=S)n(-c4cc(C(F)(F)F)cc(C(F)(F)F)c4)c(=O)c23)C1

>  <class>
true

$$$$
>  <mol>
O=C(CCN1CCCC1)Nc1ccc2c(NCc3ccccc3)c3ccccc3nc2c1

>  <class>
true

$$$$
>  <mol>
COC(=O)c1c2c(c(C)[n+]([O-])c1C)C(=O)C=C(NCc1ccccc1)C2=O

>  <class>
true

$$$$
>  <mol>
CCC(=O)N1C/C(=C/c2ccc(Cl)cc2)C(=O)/C(=C/c2ccc(Cl)cc2)C1

>  <class>
false

$$$$
>  <mol>
NC(=N\N=C/c1ccc(O)cc1)/C(N)=N\N=C/c1ccc(O)cc1

>  <class>
false

$$$$
>  <mol>
CN(C)C(=O)Nc1nc2cc(Cl)c(Cl)cc2[nH]1

>  <class>
false

$$$$

* * *

TGI for assorted compounds
# System: SNB-75 CNS
# protocolDetails: NCI tumour cell line growth inhibition, 48 h
observationType: TGI

>  <mol>
CO/N=C(\COc1ccc2c(=O)c3ccccc3oc2c1)c1ccccc1

>  <observationType>
TGI

>  <recordedMeasurement>
> 100 µM

$$$$
>  <mol>
O=C(NNC(=S)Nc1ccccc1)c1nsc2ccccc12

>  <observationType>
TGI

>  <recordedMeasurement>
65.6 µM

$$$$
>  <mol>
CCCCCCCCCCCC1=NC(C)(C)CN1C(C)(C)CO

>  <observationType>
TGI

>  <recordedMeasurement>
7.12 µM

$$$$
>  <mol>
CCOc1ccc2c(-c3ccnc(Nc4cc(OC)cc(C(F)(F)F)c4)n3)cnn2n1

>  <observationType>
TGI

>  <recordedMeasurement>
> 25 µM

$$$$
>  <mol>
CCO/C=C1\N=C(c2ccc(Cl)c(Cl)c2)OC1=O

>  <observationType>
TGI

>  <recordedMeasurement>
> 100 µM

$$$$
>  <mol>
CNc1nnc(CCCCCCCCc2nnc(NC)o2)o1

>  <observationType>
TGI

>  <recordedMeasurement>
> 100 µM

$$$$
>  <mol>
C1=NCCNCCNCCN=Cc2ccc(cc2)OCc2cccc(n2)COc2ccc1cc2

>  <observationType>
TGI

>  <recordedMeasurement>
> 100 µM

$$$$

* * *

TGI for assorted molecules
# System: UO-31 renal
# protocolDetails: NCI tumour cell line growth inhibition, 48 h

>  <molecule>
CCO/C=C1\N=C(c2ccc(Cl)c(Cl)c2)OC1=O

>  <testSystem>
UO-31 renal

>  <TGI>
> 100 µM

$$$$
>  <molecule>
O=C(COc1ccc(OCC(=O)N2C(=O)CC(=O)N(c3ccc(Cl)cc3)C2=S)cc1)N1C(=O)CC(=O)N(c2ccc(Cl)cc2)C1=S

>  <testSystem>
UO-31 renal

>  <TGI>
> 100 µM

$$$$
>  <molecule>
N#Cc1c(-c2ccc(Cl)cc2)cc(-c2ccc(Nc3ccnc4cc(Cl)ccc34)cc2)[nH]c1=O

>  <testSystem>
UO-31 renal

>  <TGI>
> 100 µM

$$$$
>  <molecule>
CCCC[C@@H](C)/C=C1\CN2CCC[C@H]2[C@@](C)(OCc2ccccc2)[C@@H]1O

>  <testSystem>
UO-31 renal

>  <TGI>
> 16.6 µM

$$$$
>  <molecule>
C/C(CC(=O)Nc1cccc(Cl)c1C)=N\NC(N)=S

>  <testSystem>
UO-31 renal

>  <TGI>
> 100 µM

$$$$
>  <molecule>
COc1cc2ccc(C(=O)NCCCNC(=O)c3ccc4cc(OC)c(OC)cc4c3)cc2cc1OC

>  <testSystem>
UO-31 renal

>  <TGI>
> 100 µM

$$$$
>  <molecule>
COc1cc2c(cc1OC)C(C(=O)O)C(c1ccccc1)N(C)C2=O (stereo not given)

>  <testSystem>
UO-31 renal

>  <TGI>
> 100 µM

$$$$
>  <molecule>
O=[N+]([O-])c1ccc(NN=C2CN3CCN(C2)c2ccccc23)c([N+](=O)[O-])c1

>  <testSystem>
UO-31 renal

>  <TGI>
> 100 µM

$$$$
>  <molecule>
Fc1ccc(-c2ncn(C3CCNCC3)c2-c2ccnc(Oc3ccc4c(c3)OCO4)n2)cc1

>  <testSystem>
UO-31 renal

>  <TGI>
> 25 µM

$$$$
>  <molecule>
O=c1cc(-c2ccccn2)[nH]c2cccc(F)c12

>  <testSystem>
UO-31 renal

>  <TGI>
> 100 µM

$$$$

* * *

# System: SK-MEL-5 melanoma
# protocolDetails: NCI tumour cell line growth inhibition, 48 h; in the data active means GI50 below about 0.43 µM; inactive means the rest
Labels: y = active, n = inactive

>  <mol>
CCCCNNC(=O)c1ccc(Br)cc1

>  <class>
n

$$$$
>  <mol>
CCC(=O)N1C/C(=C/c2ccc(Cl)cc2)C(=O)/C(=C/c2ccc(Cl)cc2)C1

>  <class>
n

$$$$
>  <mol>
CN(C)c1ccc(Nc2c3ccccc3nc3ccccc23)cc1

>  <class>
n

$$$$
>  <mol>
CN1CCN(Cc2c[nH]c3c2C(=O)c2c(c(O)c4ccccc4c2O)C3=O)CC1

>  <class>
n

$$$$
>  <mol>
O=C1CCc2c(sc3[nH]c(=S)n(-c4cc(C(F)(F)F)cc(C(F)(F)F)c4)c(=O)c23)C1

>  <class>
y

$$$$
>  <mol>
c1ccc(-c2nn3c(c2-c2ccnc4cc(OCCN5CCOCC5)ccc24)CCC3)nc1

>  <class>
n

$$$$
>  <mol>
CCOc1ccc2c(-c3ccnc(Nc4cc(OC)cc(C(F)(F)F)c4)n3)cnn2n1

>  <class>
n

$$$$
>  <mol>
COc1ccc(-c2cc(=O)n(-c3nc4ccccc4[nH]3)[nH]2)cc1OC

>  <class>
n

$$$$
>  <mol>
COc1cc2c3c(n(CCCN)c(=O)c2cc1OC)-c1ccc([N+](=O)[O-])cc1C3=O

>  <class>
n

$$$$

* * *

# Tested on: BT-549 breast
# protocolDetails: NCI tumour cell line growth inhibition, 48 h
TGI for assorted compounds

>  <compound>
Cc1cc(-n2nnc(C(=O)O)c2-c2ccccc2)c2ccc(Cl)cc2n1

>  <TGI>
> 100 µM

$$$$
>  <compound>
O=C(O)C(Cc1cnc[nH]1)N1C(=O)c2ccccc2C1=O (stereo not drawn)

>  <TGI>
> 100 µM

$$$$
>  <compound>
CCCCc1ccc(Nc2ncc3ncn(COCCO)c3n2)cc1

>  <TGI>
> 100 µM

$$$$
>  <compound>
N#CC(CCN1CCC(Nc2ccccc2)(c2nnnn2C2CCCCC2)CC1)(c1ccccc1)c1ccccc1

>  <TGI>
> 100 µM

$$$$
>  <compound>
C/C=C(\C)C(=O)OC1CC(OC(C)=O)C2(C(=O)OC)COC3C2C1(C)C1C2(C(=O)OC)OCC1(C3O)C1(O)C3CC(C4(O)C=COC4O3)C1(C)O2 (stereo not drawn)

>  <TGI>
> 100 µM

$$$$
>  <compound>
c1ccc(-c2nn3c(c2-c2ccnc4cc(OCCN5CCOCC5)ccc24)CCC3)nc1

>  <TGI>
> 100 µM

$$$$
>  <compound>
CC1C(NNC(N)=O)Oc2cc3c(cc2C1c1ccccc1O)OCO3 (stereo not drawn)

>  <TGI>
> 100 µM

$$$$
>  <compound>
C=C(C)[C@@H]1CCC=C2CC[C@]3(C)[C@H](CC[C@@H]4[C@@]5(C)CCCNC(C)(C)[C@@H]5CC[C@]43C)[C@H]21

>  <TGI>
20.7 µM

$$$$
>  <compound>
O=C(Oc1cccc(Cl)c1)c1ccccc1Nc1ccnc(C(F)(F)F)c1

>  <TGI>
27.6 µM

$$$$
>  <compound>
O=C(/C(=C(/O)c1ccccc1)c1nc2ccccc2sc1=O)c1ccccc1

>  <TGI>
> 100 µM

$$$$
>  <compound>
ClC(Cl)(Cl)C1CCOC1n1nnc2ccccc21 (stereo not drawn)

>  <TGI>
86 µM

$$$$
>  <compound>
OCCCCC#Cc1ccccc1C#Cc1ccc(O)cc1

>  <TGI>
28.8 µM

$$$$
>  <compound>
COc1ccc2c(c1)nc(NNC(=O)c1cnccn1)c1cccn12

>  <TGI>
3.62 µM

$$$$
